- systemTested: mGAT1 (Mus musculus)
- Construct: full-length transporter stably expressed in HEK293 cells
- experiment: [3H]GABA uptake, intact HEK293 cells
measuredMetric: IC50 (µM)

{"compound": "O=C(O)C1CCCN(CCC=C=C(c2ccc(F)cc2)c2ccc(F)cc2)C1 (racemic) [rac-11c]", "unitText": "µM", "IC50": 12.9}

(A) O=C(O)[C@H]1CCCN(CC=C=C(c2ccc(Cl)cc2)c2ccc(Cl)cc2)C1 [(S)-8d]
(B) O=C(O)C1CCCN(CC=C=C(c2ccccc2)c2ccccc2)C1 (racemic) [rac-8a]
(C) COc1ccc2c(c1)CCCC2=C=CCN1CCCC(C(=O)O)C1 (racemic) [8g]
(D) O=C(O)C1CCCN(CC=C=C(c2ccc(Cl)cc2)c2ccc(Cl)cc2)C1 (racemic) [rac-8d]
Problem: Order the items by recorded IC50; the first position goes to the largest value. Labels, requested order.
Result: C, B, A, D

----------
- systemTested: mGAT3 (Mus musculus, UniProt P31649)
- Construct: full-length transporter stably expressed in HEK293 cells; mouse nomenclature, equivalent of hGAT-2
- Sequence (P31649 whole entry): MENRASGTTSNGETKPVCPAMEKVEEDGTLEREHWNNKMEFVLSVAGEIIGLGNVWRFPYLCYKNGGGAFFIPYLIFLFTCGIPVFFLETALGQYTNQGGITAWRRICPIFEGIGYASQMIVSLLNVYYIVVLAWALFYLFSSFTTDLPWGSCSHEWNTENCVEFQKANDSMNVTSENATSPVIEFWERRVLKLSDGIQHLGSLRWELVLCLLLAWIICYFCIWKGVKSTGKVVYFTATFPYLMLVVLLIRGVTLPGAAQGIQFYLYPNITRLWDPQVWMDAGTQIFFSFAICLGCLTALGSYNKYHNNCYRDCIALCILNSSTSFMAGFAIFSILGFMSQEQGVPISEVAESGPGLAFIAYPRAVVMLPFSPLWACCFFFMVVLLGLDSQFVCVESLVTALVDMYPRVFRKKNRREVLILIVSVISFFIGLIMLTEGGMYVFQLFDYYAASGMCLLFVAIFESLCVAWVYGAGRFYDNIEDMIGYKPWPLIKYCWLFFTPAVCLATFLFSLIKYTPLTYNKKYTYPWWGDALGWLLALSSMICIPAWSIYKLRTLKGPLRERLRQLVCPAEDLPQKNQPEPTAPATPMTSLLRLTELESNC
- experiment: [3H]GABA uptake, intact HEK293 cells
measuredMetric: IC50 (µM)

{"compound": "O=C(O)C1CCCN(CCC=C=C(c2ccc(Cl)cc2)c2ccc(Cl)cc2)C1 (racemic) [rac-11d]", "systemTested": "mGAT3 (Mus musculus, UniProt P31649)", "measuredMetric": "IC50", "observedValue": 28.2}
{"compound": "Cc1ccc(C(=C=CCN2CCCC(C(=O)O)C2)c2ccc(C)cc2)cc1 (racemic) [rac-8b]", "systemTested": "mGAT3 (Mus musculus, UniProt P31649)", "measuredMetric": "IC50", "observedValue": 10.5}
{"compound": "Cc1ccc(C(=C=CCCN2CCCC(C(=O)O)C2)c2ccc(C)cc2)cc1 (racemic) [rac-11b]", "systemTested": "mGAT3 (Mus musculus, UniProt P31649)", "measuredMetric": "IC50", "observedValue": 58.9}
{"compound": "O=C(O)C1CCCN(CC=C=C(c2ccc(F)cc2)c2ccc(F)cc2)C1 (racemic) [rac-8c]", "systemTested": "mGAT3 (Mus musculus, UniProt P31649)", "measuredMetric": "IC50", "observedValue": 69.2}
{"compound": "O=C(O)C1CCCN(CC=C=C(c2ccccc2)c2ccc(-c3ccccc3)cc2)C1 (racemic) [8f]", "systemTested": "mGAT3 (Mus musculus, UniProt P31649)", "measuredMetric": "IC50", "observedValue": 8.32}

(a) O=C(O)C1CCCN(CCC=C=C(c2ccccc2)c2ccc(-c3ccccc3)cc2)C1 (racemic) [11f]
(b) O=C(O)C1CCCN(CC=C=C(c2ccc(Cl)cc2)c2ccc(Cl)cc2)C1 (racemic) [rac-8d]
(c) O=C(O)[C@H]1CCCN(CC=C=C(c2ccc(Cl)cc2)c2ccc(Cl)cc2)C1 [(S)-8d]
(d) O=C(O)C1CCCN(CCC=C=C(c2ccccc2)c2ccccc2)C1 (racemic) [rac-11a]
Problem: Give the ascending ranking of the items by reported IC50. Kindly provide the labels arranged according to the requested ordering.
Result: c, b, a, d

All values here come from paper doi:10.1101/2025.02.15.638425v1.
